# % d'inhibition de l'ODL Test A per entry
- System: ornithine décarboxylase rénale
- Test details: Androgen / anti-androgen activity by assay of renal ornithine decarboxylase in castrated mice given testosterone propionate
- Type: in vivo, souris mâles SWISS
- Measurement context: Test A: percutaneous route, 1,5 mg/kg in 10 µl; with testosterone propionate 3 mg/kg s.c.; kidneys 20 hours after treatment; relative to controls given testosterone propionate only
Report the figure in % without appending any unit label.

Input line: Item: CC(C)N1C(=S)N(c2ccc(C#N)c(C(F)(F)F)c2)C(=O)C1(C)C Test system: ornithine décarboxylase rénale Read-out: % d'inhibition de l'ODL Test A Value: ?
Output line: 35

Input line: Moving on to the next molecule: CC1(C)C(=O)N(c2ccc(C#N)c(C(F)(F)F)c2)C(=S)N1CCCO
Output line: 41

Input line: Moving on to the next molecule: CC1(C)C(=O)N(c2ccc(C#N)c(C(F)(F)F)c2)C(=S)N1CCO
Output line: 32

Input line: Moving on to the next molecule: CC1(C)C(=O)N(c2ccc(C#N)c(C(F)(F)F)c2)C(=O)N1CCCCO
Output line: 40

Input line: Moving on to the next molecule: CC1(C)C(=O)N(c2ccc(C#N)c(C(F)(F)F)c2)C(=S)N1CCCCO
Output line: 78

Would you kindly look at the next entry?
Input line: Item: COCCN1C(=S)N(c2ccc(C#N)c(C(F)(F)F)c2)C(=O)C1(C)C Test system: ornithine décarboxylase rénale Read-out: % d'inhibition de l'ODL Test A Value: ?
Output line: 62

----------
- System: récepteur androgène (Rattus norvegicus, UniProt P15207)
- Construct: Des aliquotes du surnageant obtenu (=cytosol), sont incubées 30 minutes et 24 heures à 0°C; from tissue; host or cells: prostate cytosol of castrated male Sprague-Dawley rats
- Sequence (P15207 whole entry S389L): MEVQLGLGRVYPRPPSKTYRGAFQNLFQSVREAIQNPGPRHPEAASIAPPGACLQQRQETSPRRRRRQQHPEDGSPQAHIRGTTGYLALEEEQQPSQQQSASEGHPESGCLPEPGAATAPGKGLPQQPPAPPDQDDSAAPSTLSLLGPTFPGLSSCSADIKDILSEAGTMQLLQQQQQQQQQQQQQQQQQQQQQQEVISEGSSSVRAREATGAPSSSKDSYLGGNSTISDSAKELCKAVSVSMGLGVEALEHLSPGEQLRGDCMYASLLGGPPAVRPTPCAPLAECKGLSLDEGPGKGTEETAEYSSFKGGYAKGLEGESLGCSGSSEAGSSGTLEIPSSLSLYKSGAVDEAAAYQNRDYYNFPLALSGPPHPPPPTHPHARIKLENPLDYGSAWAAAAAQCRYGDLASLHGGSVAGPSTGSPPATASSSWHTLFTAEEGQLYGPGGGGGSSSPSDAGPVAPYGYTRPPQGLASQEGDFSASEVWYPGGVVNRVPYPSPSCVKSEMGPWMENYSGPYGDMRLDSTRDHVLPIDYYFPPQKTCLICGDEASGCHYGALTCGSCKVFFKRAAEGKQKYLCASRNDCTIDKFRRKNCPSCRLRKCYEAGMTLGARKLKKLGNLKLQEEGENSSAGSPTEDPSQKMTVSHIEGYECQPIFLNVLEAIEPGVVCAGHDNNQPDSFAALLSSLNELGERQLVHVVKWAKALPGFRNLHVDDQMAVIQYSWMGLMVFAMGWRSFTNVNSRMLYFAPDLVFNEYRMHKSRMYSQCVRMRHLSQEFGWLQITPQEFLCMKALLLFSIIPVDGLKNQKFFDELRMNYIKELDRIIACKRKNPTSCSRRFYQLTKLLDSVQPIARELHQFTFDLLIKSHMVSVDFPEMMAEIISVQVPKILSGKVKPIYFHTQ
- Test details: Relative binding affinity (ARL) for the androgen receptor: displacement of tritiated testosterone in prostate cytosol
- Design: species or system rats mâles Sprague. Dawley EOPS
- Measurement context: Incubation 24 hours at 0°C; prostate cytosol of castrated rats; ARL=100 (CH)/(CX), testosterone = 100
Measured property: ARL (affinité relative de liaison)
Form: value (number only, do not type unit).

Sample records with ARL (affinité relative de liaison):
Input line: Item: CC(C)N1C(=S)N(c2ccc(C#N)c(C(F)(F)F)c2)C(=O)C1(C)C Test system: récepteur androgène (Rattus norvegicus, UniProt P15207) Read-out: ARL (affinité relative de liaison) Value: ?
Output line: 28

Input line: Moving on to the next molecule: CC1(C)C(=O)N(c2ccc(C#N)c(C(F)(F)F)c2)C(=S)N1CCO
Output line: 163

Input line: Moving on to the next molecule: COCCN1C(=S)N(c2ccc(C#N)c(C(F)(F)F)c2)C(=O)C1(C)C
Output line: 81

Input line: Moving on to the next molecule: CC1(C)C(=O)N(c2ccc(C#N)c(C(F)(F)F)c2)C(=O)N1CCCCO
Output line: 31

Would you kindly look at the next entry?
Input line: Item: CC1(C)C(=O)N(c2ccc(C#N)c(C(F)(F)F)c2)C(=S)N1CCCCO Test system: récepteur androgène (Rattus norvegicus, UniProt P15207) Read-out: ARL (affinité relative de liaison) Value: ?
Output line: 300
